target entity: Arginase-2, mitochondrial (Homo sapiens) (UniProt P78540)
Sequence (P78540 whole entry): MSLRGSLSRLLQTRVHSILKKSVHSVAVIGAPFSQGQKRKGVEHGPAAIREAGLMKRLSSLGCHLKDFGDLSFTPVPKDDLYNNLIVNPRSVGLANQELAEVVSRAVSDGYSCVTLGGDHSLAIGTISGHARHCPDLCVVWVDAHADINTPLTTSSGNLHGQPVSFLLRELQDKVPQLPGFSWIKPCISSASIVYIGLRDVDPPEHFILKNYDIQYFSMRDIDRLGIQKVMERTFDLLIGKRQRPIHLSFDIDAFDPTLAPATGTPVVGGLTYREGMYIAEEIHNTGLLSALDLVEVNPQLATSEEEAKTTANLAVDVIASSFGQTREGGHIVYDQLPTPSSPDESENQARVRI
method description: in vitro enzyme assay to detect the production of urea directly proportional to the activity of Arginase II
Format: functional
Design: scale not given: in the data most compounds retested in dose-response had high values
experimental parameters: 33.3 µM
parameter measured: Percent Effect (%)
Express your answer in %, writing the number without its unit.

Prompt: Given "Cc1nccc(-c2cccc(NCC(=O)N3CCCCCCC3)c2)n1" , state its recorded Percent Effect.
Response: -0.36

Prompt: Given "CSCC(=O)N1CCCN(c2ccccc2C)CC1" , state its recorded Percent Effect.
Response: -0.248

Prompt: Given "Cn1ccnc1N1CCN(C(=O)Cc2ccc(F)cc2)CC1" , state its recorded Percent Effect.
Response: 0.645

Prompt: Given c1cc2nccc(CC3CCCN(Cc4ncc[nH]4)CC3)c2cn1 (configuration not stated) , state its recorded Percent Effect.
Response: -2.09

Prompt: Given CCCN(CCO)C(=O)C1CCC(=O)N(CCc2ccc(Cl)cc2)C1 (configuration not stated) , state its recorded Percent Effect.
Response: 3.53

Prompt: Given "CN(C)c1cc(CNC(=O)Nc2ccc(S(C)(=O)=O)nc2)ccn1" , state its recorded Percent Effect.
Response: 1.64

Prompt: Given "COCCN1CC[C@@H]2O[C@@H](COCC(=O)N3CCCC3)CC[C@@H]21" , state its recorded Percent Effect.
Response: -3.99

Prompt: Given "CNC(=O)c1cccnc1Oc1ccccc1" , state its recorded Percent Effect.
Response: 0

Prompt: Given COc1ccc(F)cc1S(=O)(=O)NCC(c1cccn1C)N(C)C (configuration not stated) , state its recorded Percent Effect.
Response: 3.64

Prompt: Given "CC(C)C(=O)N1CCN(Cc2cc(-c3ccncc3)nn2C)CC1" , state its recorded Percent Effect.
Response: -3.48

Prompt: Given Cc1ccc(C)c(CNC(=O)NC(C)(C(=O)O)c2ccco2)c1 (configuration not stated) , state its recorded Percent Effect.
Response: -5.75

Prompt: Given CCC(NC(=O)C1CCN(S(=O)(=O)N(C)C)CC1)c1ccc(C)c(C)c1 (configuration not stated) , state its recorded Percent Effect.
Response: 19.3

Prompt: Given c1coc(-c2noc(CN3CCCC(Cn4cncn4)C3)n2)c1 (configuration not stated) , state its recorded Percent Effect.
Response: -3.04

Prompt: Given "Cc1cc(C)n(-c2cncc(NCCNC(=O)C(C)C)n2)n1" , state its recorded Percent Effect.
Response: 0.248

Prompt: Given "Cc1noc(C)c1CN1CCc2nn(C(C)C)c(=O)cc2C1" , state its recorded Percent Effect.
Response: 5.04

Prompt: Given CN(C)S(=O)(=O)c1ccc(CN2CCCC2c2ccc[nH]2)o1 (configuration not stated) , state its recorded Percent Effect.
Response: -0.719

Prompt: Given Cc1cnc(CN(C)C2CCN(Cc3ccccc3C#N)C2)o1 (configuration not stated) , state its recorded Percent Effect.
Response: 3.1

Prompt: Given "CS(=O)(=O)NC[C@]12COC[C@H]1CN(C(=O)c1ccoc1)C2" , state its recorded Percent Effect.
Response: 4.52

Prompt: Given Cn1cc(CN2CCOCC3(C2)CN(c2ccccc2)C(=O)CO3)cn1 (configuration not stated) , state its recorded Percent Effect.
Response: 0

Prompt: Given "CC(C)CNC(=O)Nc1ccc(CN2CCOC2=O)cc1" , state its recorded Percent Effect.
Response: 0.442

Prompt: Given "COc1cccc(S(=O)(=O)N2CCn3cnc(COCC4CC4)c3C2)c1" , state its recorded Percent Effect.
Response: -33.1

Prompt: Given "O=C(NCCN1CCCCC1)c1ccoc1" , state its recorded Percent Effect.
Response: -2.66

Prompt: Given COCC1CC2(CCN(Cc3cnn(C)c3)CC2)CN1c1ncccn1 (configuration not stated) , state its recorded Percent Effect.
Response: -5.52

Prompt: Given COCCn1ccnc1C1CCCN(C(=O)CSCC2CC2)C1 (configuration not stated) , state its recorded Percent Effect.
Response: 0

Prompt: Given COc1cccc(-c2noc(C3CCN(Cc4cccs4)C3)n2)c1 (configuration not stated) , state its recorded Percent Effect.
Response: 1.77

Prompt: Given "CCC(=O)N1CCC2(CC1)c1nc[nH]c1CCN2S(C)(=O)=O" , state its recorded Percent Effect.
Response: 23

Prompt: Given Cc1nn(C)cc1CCC(=O)N1CCCC(n2cncn2)C1 (configuration not stated) , state its recorded Percent Effect.
Response: 7.98

Prompt: Given "CCN(Cc1cccc2c1OCO2)C(=O)NC1CC1" , state its recorded Percent Effect.
Response: -7.17

Prompt: Given "COc1cc2nc(C)n(CC(=O)O)c(=O)c2cc1OC" , state its recorded Percent Effect.
Response: 1.23

Prompt: Given O=S(=O)(N1CCCC1)N1CCCCC1CCc1ccccc1 (configuration not stated) , state its recorded Percent Effect.
Response: -1.05

Prompt: Given "Cc1nc(COC[C@@H]2CCC[C@@]23CNCCO3)cs1" , state its recorded Percent Effect.
Response: 4.05

Prompt: Given "Cn1cc(CC(=O)N2CCC(Nc3cccnn3)CC2)c2ccccc21" , state its recorded Percent Effect.
Response: -7.99

Prompt: Given "Cn1cc(C(=O)NC[C@@H]2OC[C@H]3CN(S(C)(=O)=O)CC[C@H]32)cn1" , state its recorded Percent Effect.
Response: -1.6

Prompt: Given "Cc1cnccc1N1CCCN(C(=O)CCCS(N)(=O)=O)CC1" , state its recorded Percent Effect.
Response: 15.4

Prompt: Given CCc1n[nH]c(C2CN(C(=O)c3ncoc3C(C)C)CCO2)n1 (configuration not stated) , state its recorded Percent Effect.
Response: -2.25

Prompt: Given COc1ccc(OC)c(CCNC(=O)NC(C)Cn2ccnc2)c1 (configuration not stated) , state its recorded Percent Effect.
Response: -6.13

Prompt: Given CC(C)NC(=O)N1CCN(C(=O)N(C)C)CC2(CC(=O)N(C)C2)C1 (configuration not stated) , state its recorded Percent Effect.
Response: 6.25

Prompt: Given COc1ccc(CN(C)CC(=O)NC2(C)CCS(=O)(=O)C2)cc1F (configuration not stated) , state its recorded Percent Effect.
Response: 4.88

Prompt: Given COc1ccc(C(C)N2CCN(Cc3nccn3C)CC2)cc1Cl (configuration not stated) , state its recorded Percent Effect.
Response: 0.712

Prompt: Given CC(C)N(C)C(=O)C1=NOC2(CCN(C(=O)c3ccncc3)C2)C1 (configuration not stated) , state its recorded Percent Effect.
Response: -5.19

Prompt: Given CC(C)=CCN(C)C1CCCN(Cc2noc(C)n2)C1 (configuration not stated) , state its recorded Percent Effect.
Response: 1.29

Prompt: Given "Cc1c(F)cccc1CN1CCn2nc(CNC(=O)N(C)C)cc2C1" , state its recorded Percent Effect.
Response: 28.3

Prompt: Given "Cc1nc(NCCc2ccc(Cl)cc2)cc(C(=O)N2CCCCC2)n1" , state its recorded Percent Effect.
Response: -16.6

Prompt: Given CCN1C(=O)CCCC12CCCN(C(=O)c1cnccn1)C2 (configuration not stated) , state its recorded Percent Effect.
Response: -2.28

Prompt: Given COc1ccc(OC)c(C(C)Nc2nc3c(C)nn(C)c3c(=O)n2C)c1 (configuration not stated) , state its recorded Percent Effect.
Response: -22.1

Prompt: Given "Cn1cc(CN2CCc3c(nc(-c4ccccn4)[nH]c3=O)C2)cn1" , state its recorded Percent Effect.
Response: -1.17

Prompt: Given Cc1ccc2c(c1)CN(C(=O)c1ccccc1F)C(CN(C)C)CO2 (configuration not stated) , state its recorded Percent Effect.
Response: -4.41

Cited source for all entries: ChEMBL document CHEMBL3988442
